# System: pyramidal neurons throughout the CA1 layer of the anterior hippocampus
# experiment notes: Global Brain Ischemia In Gerbils
# Type: in vivo, mongolian gerbils
# experimental context: Meriones unguiculatus, Pyramidal neuron, ip, 336 h, 1.0 mg/kg ip, 3 daily injections; 14 days post-ischemia; fraction of hippocampi protected; read-out: PERCENT PROTECTION
Overview of reported responders at 1 mg/kg across a group of molecules:
quantity measured: responders at 1 mg/kg (%)

molecule: NCCCNCCCCNC1CCc2ccccc21 (stereo not shown)
quantity measured: responders at 1 mg/kg
result number: 12
--
molecule: NCCCCN(CCCN)C1CCc2ccccc21 (stereo not shown)
quantity measured: responders at 1 mg/kg
result number: 50
--
molecule: NCCCCNCCCNCCCCNC1CCc2ccccc21 (stereo not shown)
quantity measured: responders at 1 mg/kg
result number: 0
--
molecule: NCCCNC1CCc2ccccc21 (stereo not shown)
quantity measured: responders at 1 mg/kg
result number: 12
--
molecule: NCCCNCCCCNCCCNC1CCc2ccccc21 (stereo not shown)
quantity measured: responders at 1 mg/kg
result number: 12
--
molecule: NCCCCNC1CCc2ccccc21 (stereo not shown)
quantity measured: responders at 1 mg/kg
result number: 25
--
molecule: N[C@@H]1C[C@@H](N)c2ccccc21 (relative stereo) [Compound 2716, trans 1,3-diaminoindan]
quantity measured: responders at 1 mg/kg
result number: 50
